molecular target: UniProt:P62937; experiment: Inhibition of isomerase activity of Cyclophilin A at 10 uM
Sequence (P62937 whole entry, looked up): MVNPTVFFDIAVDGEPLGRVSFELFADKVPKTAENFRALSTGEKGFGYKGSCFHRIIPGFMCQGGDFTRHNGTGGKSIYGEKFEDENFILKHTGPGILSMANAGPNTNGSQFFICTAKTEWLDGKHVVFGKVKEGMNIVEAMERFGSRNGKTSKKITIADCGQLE

>  <test_smiles>
CC(C)c1ccccc1NC(=O)Nc1ncccc1OCc1ccccc1

>  <inhibition [%]>
0

$$$$
>  <test_smiles>
CNS(=O)(=O)c1ccc(NC(=O)Nc2ncccc2OCc2ccccc2)cc1

>  <inhibition [%]>
97

$$$$
>  <test_smiles>
O=C(Nc1ccccc1-c1ccccc1)Nc1ncccc1OCc1ccccc1

>  <inhibition [%]>
21

$$$$
>  <test_smiles>
O=C(Nc1ccc(Cl)cc1)Nc1ncccc1OCc1ccccc1

>  <inhibition [%]>
100

$$$$
>  <test_smiles>
NS(=O)(=O)c1ccc(NC(=O)Nc2ncccc2OCc2ccccc2)cc1

>  <inhibition [%]>
96

$$$$
>  <test_smiles>
O=C(Nc1cccc(Br)c1)Nc1ncccc1OCc1ccccc1

>  <inhibition [%]>
11

$$$$
>  <test_smiles>
O=C(Nc1cccc([N+](=O)[O-])c1)Nc1ncccc1OCc1ccccc1

>  <inhibition [%]>
100

$$$$
>  <test_smiles>
O=C(Nc1ncccc1OCc1ccccc1)c1ccccc1

>  <inhibition [%]>
22

$$$$
>  <test_smiles>
O=C(Nc1ccccc1)Nc1ncccc1O

>  <inhibition [%]>
10

$$$$
>  <test_smiles>
COC(=O)c1cc(NC(=O)Nc2ncccc2OCc2ccccc2)cc(C(N)=O)c1

>  <inhibition [%]>
5

$$$$
>  <test_smiles>
O=C(Nc1ccccc1)Nc1ncccc1OCc1cccc2ccccc12

>  <inhibition [%]>
55

$$$$
>  <test_smiles>
Cc1cccc(NC(=O)Nc2ncccc2OCc2ccccc2)c1C

>  <inhibition [%]>
63

$$$$
>  <test_smiles>
NC(=O)Nc1ccccc1NC(=O)Nc1ncccc1OCc1ccccc1

>  <inhibition [%]>
8

$$$$
>  <test_smiles>
CC(=O)Nc1ccccc1NC(=O)Nc1ncccc1OCc1ccccc1

>  <inhibition [%]>
35

$$$$
>  <test_smiles>
COC(=O)c1cc(NC(=O)Nc2ncccc2OCc2ccccc2)cc(C(=O)OC)c1

>  <inhibition [%]>
34

$$$$
>  <test_smiles>
O=C(Nc1ccc([N+](=O)[O-])cc1)Nc1ncccc1OCc1ccccc1

>  <inhibition [%]>
100

$$$$
>  <test_smiles>
N#Cc1cccc(NC(=O)Nc2ncccc2OCc2ccccc2)c1

>  <inhibition [%]>
55

$$$$
>  <test_smiles>
NC(=O)c1ccc(NC(=O)Nc2ncccc2OCc2ccccc2)cc1

>  <inhibition [%]>
84

$$$$
>  <test_smiles>
N#Cc1ccc(NC(=O)Nc2ncccc2OCc2ccccc2)cc1

>  <inhibition [%]>
49

$$$$
>  <test_smiles>
O=C(Nc1ccccc1C(=O)O)Nc1ncccc1OCc1ccccc1

>  <inhibition [%]>
25

$$$$
>  <test_smiles>
NC(=O)c1cccc(NC(=O)Nc2ncccc2OCc2ccccc2)c1

>  <inhibition [%]>
95

$$$$
>  <test_smiles>
O=C(Nc1cc(Cl)c(Cl)cc1Cl)Nc1ncccc1OCc1ccccc1

>  <inhibition [%]>
74

$$$$
>  <test_smiles>
O=C(Nc1ccc(F)cc1F)Nc1ncccc1OCc1ccccc1

>  <inhibition [%]>
100

$$$$
>  <test_smiles>
CCOC(=O)c1ccc(NC(=O)Nc2ncccc2OCc2ccccc2)cc1

>  <inhibition [%]>
100

$$$$
>  <test_smiles>
CCOC(=O)c1cccc(NC(=O)Nc2ncccc2OCc2ccccc2)c1

>  <inhibition [%]>
100

$$$$
>  <test_smiles>
NC(=O)Nc1cccc(NC(=O)Nc2ncccc2OCc2ccccc2)c1

>  <inhibition [%]>
89

$$$$
>  <test_smiles>
CCOC(=O)c1ccccc1NC(=O)Nc1ncccc1OCc1ccccc1

>  <inhibition [%]>
100

$$$$
